Molecular target: FLT3 (Homo sapiens, UniProt P36888)
Sequence (P36888 27-993, species assumed): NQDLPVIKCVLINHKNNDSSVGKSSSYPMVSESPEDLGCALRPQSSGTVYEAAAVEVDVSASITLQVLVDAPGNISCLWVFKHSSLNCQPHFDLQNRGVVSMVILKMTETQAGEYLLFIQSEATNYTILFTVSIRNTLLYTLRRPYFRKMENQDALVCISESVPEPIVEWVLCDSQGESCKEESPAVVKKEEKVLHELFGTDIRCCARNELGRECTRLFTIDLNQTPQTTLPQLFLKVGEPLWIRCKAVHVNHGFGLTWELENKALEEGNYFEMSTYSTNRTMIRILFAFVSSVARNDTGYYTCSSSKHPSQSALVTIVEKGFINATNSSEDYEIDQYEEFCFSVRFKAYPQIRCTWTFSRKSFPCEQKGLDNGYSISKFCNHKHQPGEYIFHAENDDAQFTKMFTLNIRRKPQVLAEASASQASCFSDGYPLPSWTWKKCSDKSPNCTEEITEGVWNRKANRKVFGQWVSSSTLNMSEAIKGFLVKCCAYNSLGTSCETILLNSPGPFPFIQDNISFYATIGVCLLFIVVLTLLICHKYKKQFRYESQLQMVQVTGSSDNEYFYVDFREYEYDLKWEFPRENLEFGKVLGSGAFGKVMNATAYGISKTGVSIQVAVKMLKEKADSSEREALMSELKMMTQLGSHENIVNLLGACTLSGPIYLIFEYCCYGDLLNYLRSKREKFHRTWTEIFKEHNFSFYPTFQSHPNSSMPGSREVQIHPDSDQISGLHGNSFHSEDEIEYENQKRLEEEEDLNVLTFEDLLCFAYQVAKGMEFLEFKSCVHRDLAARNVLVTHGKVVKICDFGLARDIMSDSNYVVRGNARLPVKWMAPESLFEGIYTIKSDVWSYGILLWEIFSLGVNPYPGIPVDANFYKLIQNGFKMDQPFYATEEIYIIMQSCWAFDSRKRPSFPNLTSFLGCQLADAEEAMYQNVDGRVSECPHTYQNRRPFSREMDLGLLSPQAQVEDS
readout-kind: IC50 (µM)
Form entry: value (µM) — number only.

Name the recorded IC50 for C#CCOc1ccc(Nc2ncc(Cl)c(Nc3ccccc3NC(=O)C=C)n2)c(OC)c1 [Compound 6] .
3.16

---

Molecular target: TNK2 (ACK) (Homo sapiens)
Sequence (Q07912 whole entry, species assumed): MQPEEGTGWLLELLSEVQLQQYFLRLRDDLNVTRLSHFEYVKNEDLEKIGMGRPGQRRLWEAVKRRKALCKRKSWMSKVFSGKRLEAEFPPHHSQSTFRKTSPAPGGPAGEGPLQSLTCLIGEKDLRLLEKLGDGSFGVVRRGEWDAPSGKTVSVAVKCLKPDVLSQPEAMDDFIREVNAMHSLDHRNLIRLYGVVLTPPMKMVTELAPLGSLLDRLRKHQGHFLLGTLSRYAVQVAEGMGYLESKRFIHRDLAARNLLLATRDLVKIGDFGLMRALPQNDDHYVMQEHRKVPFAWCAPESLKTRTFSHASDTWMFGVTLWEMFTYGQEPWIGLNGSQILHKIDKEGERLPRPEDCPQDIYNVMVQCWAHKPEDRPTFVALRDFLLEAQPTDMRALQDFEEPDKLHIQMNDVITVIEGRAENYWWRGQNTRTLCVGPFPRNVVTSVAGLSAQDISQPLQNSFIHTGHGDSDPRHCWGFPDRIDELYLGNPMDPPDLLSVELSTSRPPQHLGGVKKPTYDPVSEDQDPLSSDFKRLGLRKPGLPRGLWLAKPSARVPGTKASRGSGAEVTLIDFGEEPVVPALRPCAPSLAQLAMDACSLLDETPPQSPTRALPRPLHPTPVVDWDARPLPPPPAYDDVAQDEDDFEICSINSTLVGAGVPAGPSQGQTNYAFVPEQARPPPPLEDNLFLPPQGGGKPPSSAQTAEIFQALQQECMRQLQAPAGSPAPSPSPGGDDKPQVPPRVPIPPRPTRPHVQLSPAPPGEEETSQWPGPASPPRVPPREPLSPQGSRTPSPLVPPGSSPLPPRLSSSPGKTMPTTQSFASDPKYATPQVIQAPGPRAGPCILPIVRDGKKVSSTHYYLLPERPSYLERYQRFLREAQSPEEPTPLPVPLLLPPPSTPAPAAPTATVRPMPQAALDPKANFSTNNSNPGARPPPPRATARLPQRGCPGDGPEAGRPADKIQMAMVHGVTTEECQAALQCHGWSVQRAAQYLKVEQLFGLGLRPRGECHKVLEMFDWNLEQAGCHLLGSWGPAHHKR
readout-kind: pIC50
The meaning of pIC50 here: minus log10 of the concentration in molar units.

I have this molecule here, "C#CCOc1ccc(Nc2ncc(Cl)c(Nc3ccccc3NC(=O)C=C)n2)c(OC)c1" , and I need its recorded pIC50.
6.50

---

Listing of entries alongside the reported Relative phosphorylation (% of highest signal).
Molecular target: LYN (Homo sapiens, UniProt P07948)
Sequence (P07948 whole entry): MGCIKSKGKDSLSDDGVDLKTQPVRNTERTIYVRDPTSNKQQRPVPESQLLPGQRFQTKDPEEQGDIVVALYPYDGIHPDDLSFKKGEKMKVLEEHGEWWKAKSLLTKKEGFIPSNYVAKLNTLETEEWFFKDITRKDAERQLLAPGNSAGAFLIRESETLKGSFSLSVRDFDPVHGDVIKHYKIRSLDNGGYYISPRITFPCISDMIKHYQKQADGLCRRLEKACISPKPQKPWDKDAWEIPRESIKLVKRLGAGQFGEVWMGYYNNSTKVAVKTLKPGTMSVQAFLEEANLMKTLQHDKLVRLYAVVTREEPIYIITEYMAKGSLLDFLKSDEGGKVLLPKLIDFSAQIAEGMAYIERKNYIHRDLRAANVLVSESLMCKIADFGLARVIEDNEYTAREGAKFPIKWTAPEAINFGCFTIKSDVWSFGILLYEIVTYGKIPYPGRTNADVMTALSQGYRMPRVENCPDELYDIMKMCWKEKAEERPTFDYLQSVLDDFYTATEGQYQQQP
Experiment: PamChip microarray peptide phosphorylation
Settings: peptide substrate phosphorylated by LYN

INSERT INTO results (substance, data_value) VALUES
  ('NPT2A_501_513 (AKALGKRTAKYRW; UniProt Q06495 501-513, looked up, fragment)', '-0.318 % of highest signal'),
  ('MK01_198_210 (IMLNSKGYTKSID; UniProt P28482 198-210, looked up, fragment)', '-0.184 % of highest signal'),
  ('VGFR1_1162_1174 (VQQDGKDYIPINA; UniProt P17948 1162-1174, looked up, fragment)', '-0.153 % of highest signal');

We now examine a further substance.
Which Relative phosphorylation (% of highest signal) is listed for VGFR3_1061_1073 (DIYKDPDYVRKGS; UniProt P35916 1061-1073, looked up, fragment) ?
0.0483 % of highest signal

---

Reported values of Residual activity (%) WT Mean for individual entries
Biological target: UniProt P16591
Test: In vitro TR-FRET kinase assay
Settings: log[inhibitor] (M) -9.52288
Return type: number; implicit unit %.

Observe how each entry below is paired with its result.
INSERT INTO assay_data (compound, readout_kind, data_value) VALUES
  ('CCC(=O)Nc1ccccc1Nc1nc(Nc2ccccc2OC)ncc1Cl [Supplementary Figure 8e]', 'Residual activity (%) WT Mean', 98.2336),
  ('C#CCOc1ccc(Nc2ncc(Cl)c(Nc3ccccc3NC(=O)C=C)n2)c(OC)c1 [Supplementary Figure 8f]', 'Residual activity (%) WT Mean', 97.7799),
  ('COc1ccccc1Nc1ncc(Cl)c(Nc2ccccc2S(=O)(=O)C(C)C)n1 [Supplementary Figure 8c]', 'Residual activity (%) WT Mean', 101.278);

For the next question, use this compound.
What value of Residual activity (%) WT Mean has been recorded for this entry: C=CC(=O)Nc1ccccc1Nc1nc(Nc2ccccc2OC)ncc1Cl [Supplementary Figure 8d]
102.334

---

Molecular target: FES^WT (Homo sapiens)
Construct: human FES cDNA encoding residues 448–822 or human FER cDNA encoding residues 448–820 was amplified by PCR; made in house; host or cells: E. coli BL21(DE3), co-expressing YopH phosphatase
Sequence (P07332 448-822): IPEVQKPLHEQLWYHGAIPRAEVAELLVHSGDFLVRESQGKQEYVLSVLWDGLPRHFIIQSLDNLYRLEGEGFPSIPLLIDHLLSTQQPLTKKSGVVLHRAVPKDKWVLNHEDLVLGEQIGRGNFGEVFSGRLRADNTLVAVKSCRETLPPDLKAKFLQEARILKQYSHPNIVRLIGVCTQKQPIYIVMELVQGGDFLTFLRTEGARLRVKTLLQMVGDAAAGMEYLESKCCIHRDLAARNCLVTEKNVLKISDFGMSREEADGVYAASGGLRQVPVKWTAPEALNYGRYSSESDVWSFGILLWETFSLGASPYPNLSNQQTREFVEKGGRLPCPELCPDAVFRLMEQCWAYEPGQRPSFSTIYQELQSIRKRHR
Assay: PamChip microarray peptide phosphorylation
Type: biochemical
Conditions: peptide substrate phosphorylated by FES - WT
The entries below are paired with their reported Relative phosphorylation (% of highest signal).

Here are 10 substances together with their reported answers.
INSERT INTO results (substance, data_value) VALUES
  ('VINC_815_827 (KSFLDSGYRILGA; UniProt P18206 815-827, looked up, fragment)', '0.223 % of highest signal'),
  ('MBP_259_271 (FGYGGRASDYKSA; UniProt P02686 259-271, looked up, fragment)', '-0.152 % of highest signal'),
  ('ODBA_340_352_D340K (KDSSAYRSVDEVN; UniProt P12694 340-352, looked up, variant D340K)', '-0.457 % of highest signal'),
  ('STAT1_694_706 (DGPKGTGYIKTEL; UniProt P42224 694-706, looked up, fragment)', '-0.5 % of highest signal'),
  ('EFS_246_258_Y253F (GGTDEGIFDVPLL; UniProt O43281 246-258, looked up, fragment Y253F)', '-0.634 % of highest signal'),
  ('DDR1_506_518 (LLLSNPAYRLLLA; UniProt Q08345 506-518, looked up, fragment)', '-0.4 % of highest signal'),
  ('VGFR1_1049_1061 (KNPDYVRKGDTRL; UniProt P17948 1049-1061, looked up, fragment)', '-0.333 % of highest signal'),
  ('NPT2A_501_513 (AKALGKRTAKYRW; UniProt Q06495 501-513, looked up, fragment)', '0.553 % of highest signal'),
  ('VGFR1_1206_1218 (GSSDDVRYVNAFK; UniProt P17948 1206-1218, looked up, fragment)', '-0.0198 % of highest signal'),
  ('ZAP70_485_497 (ALGADDSYYTARS; UniProt P43403 485-497, looked up, fragment)', '3.5 % of highest signal');

Any idea what its Relative phosphorylation (% of highest signal) is? The substance is VGFR2_1168_1180 (AQQDGKDYIVLPI; UniProt P35968 1168-1180, looked up, fragment)
6.1 % of highest signal

Then what about the substance VGFR1_1162_1174 (VQQDGKDYIPINA; UniProt P17948 1162-1174, looked up, fragment) ?
2.3 % of highest signal

Also need EPOR_361_373 (SEHAQDTYLVLDK; UniProt P19235 361-373, looked up, fragment) , thanks.
3.3 % of highest signal

Please answer likewise for VGFR2_1207_1219_C1208S (VSDPKFHYDNTAG; UniProt P35968 1207-1219, looked up, variant C1208S)
0.5 % of highest signal

And the next one, VGFR1_1046_1058_Y1048F (DIFKNPDYVRKGD; UniProt P17948 1046-1058, looked up, variant Y1048F) ?
-0.452 % of highest signal

---

Residual activity (%) WT Mean values for the molecules below.
Biological target: FER^WT (Homo sapiens, UniProt P16591)
Sequence (P16591 448-820): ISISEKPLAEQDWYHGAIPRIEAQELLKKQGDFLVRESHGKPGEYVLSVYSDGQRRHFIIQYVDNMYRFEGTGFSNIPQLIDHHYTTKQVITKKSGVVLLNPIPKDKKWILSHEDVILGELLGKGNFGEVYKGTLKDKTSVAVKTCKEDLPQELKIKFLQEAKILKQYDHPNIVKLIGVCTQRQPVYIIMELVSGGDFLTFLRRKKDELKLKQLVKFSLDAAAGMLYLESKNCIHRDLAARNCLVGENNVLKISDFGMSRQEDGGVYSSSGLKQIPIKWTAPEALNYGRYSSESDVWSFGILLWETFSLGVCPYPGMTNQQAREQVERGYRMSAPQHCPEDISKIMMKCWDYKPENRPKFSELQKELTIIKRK
Experiment: In vitro TR-FRET kinase assay
Conditions: log[inhibitor] (M) -8
I only need the number, in %, no unit after it.

INSERT INTO measurements (molecule, assay_target, readout_kind, data_value) VALUES
  ('C=CC(=O)Nc1ccccc1Nc1nc(Nc2ccccc2OC)ncc1Cl [Supplementary Figure 8d]', 'FER^WT (Homo sapiens, UniProt P16591)', 'Residual activity (%) WT Mean', 99.295);

Form field: Residual activity (%) WT Mean recorded for C#CCOc1ccc(Nc2ncc(Cl)c(Nc3ccccc3NC(=O)C=C)n2)c(OC)c1 [Supplementary Figure 8f] with FER^WT (Homo sapiens, UniProt P16591) (enter value)
97.3541

Lookup CCC(=O)Nc1ccccc1Nc1nc(Nc2ccccc2OC)ncc1Cl [Supplementary Figure 8e]
104.761

And what about the molecule COc1ccccc1Nc1ncc(Cl)c(Nc2ccccc2S(=O)(=O)C(C)C)n1 [Supplementary Figure 8c] ?
31.4398

---

Target: CSK (Homo sapiens)
Sequence (P41240 whole entry): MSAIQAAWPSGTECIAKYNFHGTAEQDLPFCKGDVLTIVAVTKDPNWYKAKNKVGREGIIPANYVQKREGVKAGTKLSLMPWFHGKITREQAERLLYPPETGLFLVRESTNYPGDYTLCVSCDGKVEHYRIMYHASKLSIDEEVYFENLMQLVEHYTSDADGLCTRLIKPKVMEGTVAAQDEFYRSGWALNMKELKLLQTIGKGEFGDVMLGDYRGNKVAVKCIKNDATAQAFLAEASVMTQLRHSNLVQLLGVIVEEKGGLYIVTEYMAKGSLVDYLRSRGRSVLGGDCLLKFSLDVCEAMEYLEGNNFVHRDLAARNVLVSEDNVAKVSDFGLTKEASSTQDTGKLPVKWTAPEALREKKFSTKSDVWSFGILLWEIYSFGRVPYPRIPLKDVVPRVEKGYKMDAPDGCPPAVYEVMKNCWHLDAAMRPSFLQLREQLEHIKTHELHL
Test: PamChip microarray peptide phosphorylation
Conditions: peptide substrate phosphorylated by CSK
readout-kind: Relative phosphorylation (% of highest signal)

Take a look at these entries with their results.
INSERT INTO results (substance, data_value) VALUES
  ('EPOR_361_373 (SEHAQDTYLVLDK; UniProt P19235 361-373, looked up, fragment)', '2.0 % of highest signal'),
  ('AMPE_5_17 (EREGSKRYCIQTK; UniProt Q07075 5-17, looked up, fragment)', '-0.745 % of highest signal');

Identify the measured Relative phosphorylation (% of highest signal) of VGFR1_1320_1332_C1320K/C1321K (KKSPPPDYNSVVL; UniProt P17948 1320-1332, looked up, variant C1320K C1321K) for CSK (Homo sapiens).
-0.847 % of highest signal

Also VGFR2_1168_1180 (AQQDGKDYIVLPI; UniProt P35968 1168-1180, looked up, fragment) , if possible.
0.544 % of highest signal

Field entry: VGFR2_1046_1058 (DFGLARDIYKDPD; UniProt P35968 1046-1058, looked up, fragment)
2.2 % of highest signal

Next substance: ZBT16_621_633 (LRTHNGASPYQCT; UniProt Q05516 621-633, looked up, fragment)
-0.468 % of highest signal

Entry to check: VGFR2_1207_1219_C1208S (VSDPKFHYDNTAG; UniProt P35968 1207-1219, looked up, variant C1208S)
-1.4 % of highest signal

MBP_263_275 (GRASDYKSAHKGF; UniProt P02686 263-275, looked up, fragment) ?
-0.5 % of highest signal
